Experiment: RPMI8226 myeloma cell viability, profiling panel, resazurin fluorescence, basal, 24 h, PK04 Diversity Set (AID 1180);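 also: RPMI8826 multiple myeloma cell line at 5000 cells per well; test concentration not given here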
Conditions: higher = more signal
Think of -0.4 as a floor: if z-score stands on it or above, it is criterion met; beneath it, criterion not met.

In [3]: df
Out[3]:
                                   compound     classification
0  CC=CC(O)C1C=CC2C(=O)N(C)C(=O)C2N1Nc1ccc([N+](=O)[O-])cc1[N+](=O)[O-] (stereo not given)  criterion not met

Would you say CN(C)CCCNC(=O)[C@@]1(c2ccc([N+](=O)[O-])cc2)CC(=O)N(CC23CC4CC(CC(C4)C2)C3)[C@@H]1c1ccc(CO)cc1 shows z-score at minimum -0.4?
criterion not met

Form field: z-score at least -0.4? Entry: O=C(N1CCCCC1)[C@@]1(Cc2ccccc2)COC(c2ccc(OCCCO)cc2)=N1
criterion met

Is z-score at least -0.4? Consider C=CC[C@@H](OC(=O)Nc1ccc(OC)cc1)c1ccc(OCCO)cc1
criterion met

Given the entry CC(C)(C)OC(=O)CC[C@]1(C(=O)O)N=C(c2ccc(OCCCO)cc2)O[C@H]1c1ccccc1CN=[N+]=[N-] , answer whether its z-score meets or surpasses -0.4.
criterion met

====

Test: HepG2 cell viability effects, profiling panel, calcein-AM fluorescence, 48 h, basal (AID 1164); also: test concentration not given here
Conditions: higher = more signal
metric: z-score
Just the number, please, no unit attached.

Some compounds with known z-score results, for comparison:
compound	measured-number
COc1ccc([Si](C)(C)[C@@H]2[C@@H](CCO)O[C@]3(C(=O)N(Cc4cccc(N5C(=O)c6cccc7cccc5c67)c4)c4ccccc43)[C@H]2C)cc1	-3.42
CCCCC(=C=CC[C@@H](O)c1ccc(OCCO)cc1)C[C@@H](O)COCc1ccccc1	2.15
[N-]=[N+]=Nc1ccccc1[C@H]1OC(c2ccc(OCCCO)cc2)=N[C@@]1(CCS(=O)(=O)c1ccccc1)C(=O)N1CCCCC1	-0.641
[N-]=[N+]=NCc1ccccc1C[C@@]1(C(=O)NCCN2CCOCC2)N=C(c2ccc(OCCCO)cc2)O[C@@H]1c1ccccc1N=[N+]=[N-]	-1.05
[N-]=[N+]=NCc1ccccc1C[C@@]1(C(N)=O)N=C(c2ccc(OCCCO)cc2)O[C@@H]1c1ccccc1CN=[N+]=[N-]	1.42
CC(C)CCC[C@@H](C)[C@H]1CC[C@@]2(C)C3=C(CC[C@]12C)[C@@]1(C)CC[C@H](OC(=O)c2ccc(Br)cc2)C(C)(C)C1CC3 (some centres not stated)	2.04

Field z-score (entry CC(C)(C)N1CC=CC23O[C@@H]4C=CCOC(=O)[C@@H]4[C@H]2C(=O)N(CCCO)[C@@H]3C1=O (some centres not stated) ) reads -0.0446

====

Consider the following compounds and their measured composite z-score readings.
Test: anti-His antibody binders, primary screen, artefact control for SMM control protein annotation, biochemical, small-molecule microarray, 635 nm fluorescence (AID 1128);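 also: score merges feature fluorescence with signal-to-noise for each printed compound spot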
Conditions: anti-His Alexa647 antibody binding, higher = more signal
Please give only the number in your answer, with no unit.

Recorded composite z-score, per entry:
compound	metric	measured-number
CN1C(=O)C2C=CC(C(O)Cc3ccccc3)N(N(c3ccccc3)c3ccccc3)C2C1=O (stereo not given)	composite z-score	0.548
C=C(CCCC)C(=O)CC[C@@H](OC(=O)c1cccnc1)c1ccccc1OCCO	composite z-score	-0.349
COCCOC(=O)N1C(=O)[C@@]2(c3ccccc31)[C@H](C(=O)N1CCN(c3ncccn3)CC1)[C@H]1C(=O)O[C@H](c3ccccc3)[C@H](c3ccccc3)N1[C@@H]2c1ccc(OCCO)cc1	composite z-score	2.77
O=C1C[C@@](C(=O)NCC(F)(F)F)(c2ccc([N+](=O)[O-])cc2)[C@@H](c2ccc(CO)cc2)N1C1CCCCC1	composite z-score	2.22
COC(=O)[C@@]1(Cc2ccccc2)[C@H]2c3cc(C(=O)N4CCCC4)n(Cc4cc(F)cc5c4OCOC5)c3C[C@H]2CN1C(=O)c1ccccc1	composite z-score	0.69

Here is another compound to look at.
For record COC(=O)[C@@]1(Cc2ccc(OC)cc2)[C@H]2c3cc(C(=O)N(C)C)n(CCc4c[nH]c5ccc(O)cc45)c3C[C@H]2CN1C(=O)c1ccccc1 the listed composite z-score is 0.548
